- tested system: UniProt:P20309
- assay method text: Antagonism assay on human muscarinic M3 receptor (carbachol-induced intracellular calcium, FLIPR Calcium 5, transfected Cos-7 cells)
- Format: cell-based
- settings: functional inhibitory constant; carbachol-induced intracellular calcium in Cos-7 cells transfected with human M3 receptor
pKi: −log10 of the molar value.
measured parameter: pKi

>>> reported("CN1CCC[C@H]1COC(=O)Nc1ccccc1-c1ccccc1F")
9.32
>>> reported("CN1CCCC1CCOC(=O)Nc1ccc(F)cc1-c1ccc(F)c(Cl)c1 (stereo not shown)")
9.24
>>> reported("CN1CCCC1CCOC(=O)Nc1ccc(Cl)cc1-c1ccccc1 (stereo not shown)")
8.51
>>> reported("CN1CC[C@@H](COC(=O)Nc2ccc(F)cc2-c2ccc(F)c(Cl)c2)C1")
9.17
>>> reported("CN1CC[C@@H](COC(=O)Nc2ccccc2-c2cccc(Cl)c2)C1")
9.47
>>> reported("CN1CCCC1CCOC(=O)Nc1ccc(F)cc1-c1ccc(F)cc1 (stereo not shown)")
8.72
>>> reported("CN1CC[C@H](COC(=O)Nc2ccccc2-c2ccccc2)C1")
9.77
>>> reported("CN1CCCC1CCOC(=O)Nc1ccc(F)cc1-c1ccc(F)c(F)c1 (stereo not shown)")
8.92
>>> reported("CN1CC[C@@H](COC(=O)Nc2ccccc2-c2ccccc2F)C1")
8.94
>>> reported("Cc1ccc(-c2cc(F)ccc2NC(=O)OCCC2CCCN2C)cc1C (stereo not shown)")
8.62
>>> reported("CN1CCC[C@H]1COC(=O)Nc1ccccc1-c1ccc(Cl)c(Cl)c1")
8.88
>>> reported("CN1CC[C@@H](COC(=O)Nc2ccc(F)cc2-c2cc(F)cc(F)c2)C1")
9.12
>>> reported("Cc1cccc(-c2ccccc2NC(=O)OCCC2CCCN2C)c1 (stereo not shown)")
8.39
>>> reported("CN1CCCC1CCOC(=O)Nc1ccc(F)cc1-c1cc(Cl)c(F)c(Cl)c1 (stereo not shown)")
8.00
>>> reported("CN1CCCC1CCOC(=O)Nc1ccc(O)cc1-c1ccc(F)c(Cl)c1 (stereo not shown)")
8.00
>>> reported("CN1CCCC1CCOC(=O)Nc1ccccc1-c1ccc(F)cc1F (stereo not shown)")
8.59
>>> reported("CN1CC[C@@H](COC(=O)Nc2ccccc2-c2ccc(F)cc2)C1")
9.24
>>> reported("CN1CC[C@H](COC(=O)Nc2ccc(F)cc2-c2cc(Cl)cc(Cl)c2)C1")
7.76
>>> reported("CN1CC[C@H](COC(=O)Nc2ccccc2-c2cc(F)cc(Cl)c2)C1")
8.99

---

- tested system: human muscarinic M3 receptor (Homo sapiens (Human), UniProt P20309)
- Sequence (P20309 whole entry): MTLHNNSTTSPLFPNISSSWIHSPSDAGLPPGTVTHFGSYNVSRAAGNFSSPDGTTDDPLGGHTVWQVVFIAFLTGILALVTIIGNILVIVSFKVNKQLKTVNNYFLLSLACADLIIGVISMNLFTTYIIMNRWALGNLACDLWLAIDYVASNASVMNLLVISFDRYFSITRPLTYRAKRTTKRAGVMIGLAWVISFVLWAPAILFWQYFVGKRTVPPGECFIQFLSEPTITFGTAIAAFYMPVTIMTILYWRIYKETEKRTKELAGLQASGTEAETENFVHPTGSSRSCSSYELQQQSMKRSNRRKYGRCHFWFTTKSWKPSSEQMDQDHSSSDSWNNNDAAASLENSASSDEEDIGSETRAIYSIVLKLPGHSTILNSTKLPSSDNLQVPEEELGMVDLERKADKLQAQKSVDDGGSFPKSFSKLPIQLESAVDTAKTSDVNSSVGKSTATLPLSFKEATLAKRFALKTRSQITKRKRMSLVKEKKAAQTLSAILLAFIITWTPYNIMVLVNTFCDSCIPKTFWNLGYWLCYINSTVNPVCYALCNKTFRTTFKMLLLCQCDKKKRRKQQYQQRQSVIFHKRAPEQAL
- assay method text: Binding assay on human muscarinic M3 receptor ([3H]-methyl scopolamine displacement)
- settings: membranes overexpressing human M3 receptor, Ki from IC50 by Cheng-Prusoff, read-out: Binding Affinity to M3 Receptor, Ki
- Method: [Experimental Example 1] Binding Assay on Human Muscarinic M3 Receptor Cell membrane proteins (Perkin Elmer) wherein human muscarinic M3 receptor was overexpressed, [^3H]-methyl scopolamine and test compounds in various concentration were cultured in 0.2 ml of Tris-HCl buffer at 25° C. for 120 minutes. […] The radioactivity of [^3H]-methyl scopolamine adsorbed on the filter was measured by a liquid scintillation counter. Non-specific binding was evaluated under existence of 5 μM of atropine. […]
pKi: −log10 of the molar value.
measured parameter: pKi

>>> reported("CN1CC[C@@H](COC(=O)Nc2ccccc2-c2cccc(O)c2)C1")
7.57
>>> reported("CN1CCCC1CCOC(=O)Nc1ccccc1-c1cccc(F)c1 (stereo not shown)")
8.53
>>> reported("CN1CC[C@@H](COC(=O)Nc2ccc(F)cc2-c2cccc(N)c2)C1")
7.46
>>> reported("CN1CCC[C@H]1COC(=O)Nc1ccc(F)cc1-c1ccc(F)c(F)c1")
7.77
>>> reported("CN1CC[C@@H](COC(=O)Nc2ccccc2-c2cccc(F)c2F)C1")
6.92
>>> reported("CN1CC[C@@H](COC(=O)Nc2ccc(F)cc2-c2ccc(F)c(Cl)c2)C1")
8.95
>>> reported("CN1CCCC1COC(=O)Nc1ccccc1-c1ccc(F)cc1 (stereo in doubt)")
8.09
>>> reported("CN1CC[C@@H](COC(=O)Nc2ccc(Cl)cc2-c2ccc(F)c(Cl)c2)C1")
8.16
>>> reported("CN1CCCC1CCOC(=O)Nc1ccccc1-c1cc(Cl)cc(Cl)c1 (stereo not shown)")
8.04
>>> reported("CCN1CC[C@@H](COC(=O)Nc2ccccc2-c2ccccc2)C1")
7.89
>>> reported("Cc1cccc(-c2cc(F)ccc2NC(=O)OC[C@H]2CCNC2)c1")
7.74
>>> reported("CN1CCCC1CCOC(=O)Nc1ccccc1-c1ccc(C(F)(F)F)cc1 (stereo not shown)")
7.10
>>> reported("Cc1cc(C)cc(-c2cc(F)ccc2NC(=O)OC[C@@H]2CCN(C)C2)c1")
7.34
>>> reported("Cc1cc(C)cc(-c2cc(F)ccc2NC(=O)OCCC2CCCN2C)c1 (stereo not shown)")
7.16
>>> reported("CN1CCCC1CCOC(=O)Nc1ccccc1-c1cccc(N)c1 (stereo not shown)")
7.77
>>> reported("COc1ccc(NC(=O)OCCC2CCCN2C)c(-c2ccccc2)c1 (stereo not shown)")
6.93
>>> reported("Cc1ccc(NC(=O)OC[C@@H]2CCNC2)c(-c2cccc(F)c2)c1")
7.03

---

Each entry below carries its reported Ki.
- tested system: human muscarinic M3 receptor (Homo sapiens (Human))
- assay method text: Binding assay on human muscarinic M3 receptor ([3H]-methyl scopolamine displacement)
- settings: membranes overexpressing human M3 receptor, Ki from IC50 by Cheng-Prusoff, read-out: Binding Affinity to M3 Receptor, Ki
measured parameter: Ki (µM)

>>> reported("COc1ccc(NC(=O)OCCC2CCCN2C)c(-c2ccc(F)c(Cl)c2)c1 (centres unmarked)")
0.0713
>>> reported("CN1CC[C@H](COC(=O)Nc2ccccc2-c2cccc(F)c2)C1")
0.0126
>>> reported("CC(C)CN1CCC[C@H]1COC(=O)Nc1ccccc1-c1ccccc1")
0.752
>>> reported("Cc1cccc(-c2cc(F)ccc2NC(=O)OC[C@H]2CCN(C)C2)c1")
0.00618

---

- tested system: human muscarinic M3 receptor (Homo sapiens (Human), UniProt P20309)
- assay method text: Binding assay on human muscarinic M3 receptor ([3H]-methyl scopolamine displacement)
- settings: membranes overexpressing human M3 receptor, Ki from IC50 by Cheng-Prusoff, read-out: Binding Affinity to M3 Receptor, Ki
Binning scheme for Ki: low interval (below 4 nM), middle interval (4 nM to below 40 nM), high interval (40 nM or more)

>>> assigned_category("Cc1cccc(-c2cc(F)ccc2NC(=O)OCCC2CCCN2C)c1 (stereo not shown) [Example 22]")
"low interval"
>>> assigned_category("CN1CC[C@@H](COC(=O)Nc2ccccc2-c2ccccc2)C1 [Example 89]")
"low interval"
>>> assigned_category("CN1CCCC1CCOC(=O)Nc1ccccc1-c1ccc(C(C)(C)C)cc1 (stereo not shown) [Example 31]")
"high interval"
>>> assigned_category("CN1CCC[C@H]1COC(=O)Nc1ccc(F)cc1-c1ccc(C(C)(C)C)cc1 [Example 209]")
"high interval"
>>> assigned_category("CN1CC[C@@H](COC(=O)Nc2ccccc2-c2cccc(CO)c2)C1 [Example 152]")
"high interval"
>>> assigned_category("Cc1ccc(NC(=O)OC[C@@H]2CCN(C)C2)c(-c2cccc(F)c2)c1 [Example 98]")
"high interval"
>>> assigned_category("Cc1cc(C)cc(-c2ccccc2NC(=O)OC[C@@H]2CCN(C)C2)c1 [Example 191]")
"middle interval"
>>> assigned_category("CN1CC[C@@H](COC(=O)Nc2ccccc2-c2cc(Cl)cc(C(F)(F)F)c2)C1 [Example 138]")
"high interval"
>>> assigned_category("CN1CC[C@@H](COC(=O)Nc2ccc(F)cc2-c2cccc(F)c2)C1 [Example 194]")
"middle interval"
>>> assigned_category("CN1CCCC1CCOC(=O)Nc1ccccc1-c1ccc(F)cc1 (stereo not shown) [Example 1]")
"middle interval"
>>> assigned_category("COc1ccc(-c2cc(F)ccc2NC(=O)OC[C@@H]2CCCN2C)cc1OC [Example 220]")
"high interval"
>>> assigned_category("CN1CCC[C@H]1COC(=O)Nc1ccccc1-c1ccc(Cl)cc1 [Example 164]")
"middle interval"
>>> assigned_category("CN1CCCC1CCOC(=O)Nc1ccc(F)cc1-c1cc(O)cc(Cl)c1 (stereo not shown) [Example 57]")
"middle interval"
>>> assigned_category("Cc1ccc(-c2ccccc2NC(=O)OCCC2CCCN2C)cc1F (stereo not shown) [Example 14]")
"middle interval"
>>> assigned_category("CN1CCC[C@H]1COC(=O)Nc1ccc(F)cc1-c1cccc(F)c1 [Example 202]")
"low interval"
>>> assigned_category("CN1CC[C@H](COC(=O)Nc2ccccc2-c2cc(Cl)cc(Cl)c2)C1 [Example 119]")
"high interval"
>>> assigned_category("CN1CCC[C@H]1COC(=O)Nc1ccccc1-c1cc(F)cc(F)c1 [Example 161]")
"middle interval"
>>> assigned_category("CN1CCC[C@H]1COC(=O)Nc1cc(F)c(F)cc1-c1ccc(F)c(Cl)c1 [Example 181]")
"low interval"
>>> assigned_category("CN1CC[C@@H](COC(=O)Nc2ccccc2-c2cccc(C#N)c2)C1 [Example 155]")
"high interval"
